Value source: patent US20210155689A1

Task for the reader: assign each of the following binders its reported Mean fluorescence intensity.
Target: T1, monkey LAG-3 (full length, on the cell surface) (monkey, UniProt P18627 24-525 (human entry))
T1 construct: also called HEK293-cLAG-3; monkey LAG-3 protein on the cell surface
T1 chain: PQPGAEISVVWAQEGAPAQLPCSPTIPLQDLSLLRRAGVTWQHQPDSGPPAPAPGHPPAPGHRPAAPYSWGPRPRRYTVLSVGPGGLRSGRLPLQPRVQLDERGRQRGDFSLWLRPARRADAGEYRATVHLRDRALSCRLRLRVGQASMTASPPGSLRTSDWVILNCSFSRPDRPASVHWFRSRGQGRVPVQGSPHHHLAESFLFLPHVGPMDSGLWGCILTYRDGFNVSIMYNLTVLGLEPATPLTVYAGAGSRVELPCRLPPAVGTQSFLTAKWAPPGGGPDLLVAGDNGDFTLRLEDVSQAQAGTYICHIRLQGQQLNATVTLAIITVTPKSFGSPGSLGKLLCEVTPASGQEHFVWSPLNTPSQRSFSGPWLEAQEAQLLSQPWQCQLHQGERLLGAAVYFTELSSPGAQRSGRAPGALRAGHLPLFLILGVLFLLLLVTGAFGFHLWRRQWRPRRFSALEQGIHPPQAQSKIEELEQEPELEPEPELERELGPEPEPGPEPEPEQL
Assay: FACS, HEK293-cLAG-3; 40.000 nM
Method: The pIRES plasmid with the monkey-derived full-length gene was transfected into the HEK293 cell line to construct a HEK293 stable cell line containing monkey LAG-3 (herein referred to as HEK293-cLAG-3 stable cell line). […] After counted, the cells were diluted with HBSS to 1-2×10⁶ cells per ml, added with 1% goat serum blocking solution, incubated on ice for 20-30 minutes, and then washed with HBSS for 2 times by centrifugation. […]
Answers are plain numbers, in MFI.

| BINDER | Mean fluorescence intensity (MFI) |
| --- | --- |
| 105F1E10 (mouse antibody purified from hybridoma) (antibody, V domains shown, also called mAb009-105F1E10) VH: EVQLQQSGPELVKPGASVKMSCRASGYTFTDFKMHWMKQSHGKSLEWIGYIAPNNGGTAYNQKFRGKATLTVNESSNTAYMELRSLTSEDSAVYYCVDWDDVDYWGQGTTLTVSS VL: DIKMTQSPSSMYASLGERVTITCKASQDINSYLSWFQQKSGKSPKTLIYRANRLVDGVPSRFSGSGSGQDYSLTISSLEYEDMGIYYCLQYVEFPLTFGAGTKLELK | 87 |

Shift focus to the following entry.
Ask: # lookup: Mean fluorescence intensity of 556F6B8 (mouse antibody purified from hybridoma) (antibody, V domains shown, also called mAb123-556F6B8) VH: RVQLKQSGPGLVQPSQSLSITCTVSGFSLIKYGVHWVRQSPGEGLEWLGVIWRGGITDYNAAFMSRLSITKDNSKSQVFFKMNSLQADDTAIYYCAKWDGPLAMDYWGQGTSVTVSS VL: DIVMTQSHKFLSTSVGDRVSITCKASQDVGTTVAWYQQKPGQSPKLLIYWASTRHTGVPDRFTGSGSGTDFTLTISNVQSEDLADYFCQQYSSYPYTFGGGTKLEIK
Result: 51
